System: E. coli TESEC Mtb Alr
assay_details: growth (OD600 after 10 h); higher = more growth (less inhibition)
run_parameters: arabinose 100 nM; compound 0.1 mM; raw OD600 reference: median of DMSO wells 0.413, cell-free background 0.052
Entries and their measured growth follow.
Write the number on its own, no unit after it.

* CC(C)C[C@H](CN)CC(=O)O [Pregabalin] | 0.41

Problem: Value lookup for growth; key = O=P1(N(CCCl)CCCl)NCCCO1 (centres undefined) [Cyclophosphamide]
Result: 0.414

Problem: # lookup: growth of O=c1c2ccccc2[se]n1-c1ccccc1 [Ebselen]
Result: 0.355

Problem: GET /values?readout=growth&item= CC1C=CC=CCCC=CC=CC=CC=CC(OC2OC(C)C(O)C(N)C2O)CC2OC(O)(CC(O)C(O)CCC(O)CC(O)CC(O)CC(=O)OC(C)C(C)C1O)CC(O)C2C(=O)O (centres undefined) [Nystatine]
Result: 0.431

---

Item-by-item account of growth
System: E. coli TESEC Mtb Alr
assay_details: growth (OD600 after 10 h); higher = more growth (less inhibition)
run_parameters: arabinose 100 nM; compound 0.1 mM; raw OD600 reference: median of DMSO wells 0.413, cell-free background 0.052
Where a name gives a salt, the structure may show the parent alone.
Please state the value as a number alone, without comment.

Here are 5 compounds together with their reported answers.
- CC(=O)OC1CN2CCC1CC2 (stereo unspecified) [Aceclidine Hydrochloride]: 0.41
- COc1ccc(C(=O)N2CCCC2=O)cc1 [Aniracetam]: 0.405
- CC(=O)OCC(=O)[C@H]1CC[C@H]2[C@@H]3CC[C@H]4C[C@H](O)CC[C@]4(C)[C@H]3C(=O)C[C@]12C [Alfadolone acetate]: 0.395
- CCN(CC)C(C)C(=O)c1ccccc1 (stereo unspecified) [Amfepramone hydrochloride]: 0.411
- COP(=O)(OC)C(O)C(Cl)(Cl)Cl (stereo unspecified) [Trichlorfon]: 0.412

Problem: Fill in: growth of CC(NC(C)(C)C)C(=O)c1cccc(Cl)c1 (stereo unspecified) [Bupropion hydrochloride] is ___
Result: 0.404

---

Entries and their measured growth follow.
System: E. coli TESEC Mtb Alr
assay_details: growth (OD600 after 10 h); higher = more growth (less inhibition)
run_parameters: arabinose 1000 nM; compound 0.1 mM; raw OD600 reference: median of DMSO wells 0.294, cell-free background 0.041
Counter-ions that a name gives are not always drawn.
Simply state the number, no unit and no words.

- O=C1CC[C@@]2(O)[C@H]3Cc4ccc(O)c5c4[C@@]2(CCN3CC2CC2)[C@H]1O5 [Naltrexone hydrochloride dihydrate]: 0.279
- NCC(O)c1ccc(O)cc1 (racemic) [(+,-)-Octopamine hydrochloride]: 0.325
- COc1cc2c(cc1OC)C(C)NCC2 (stereo not drawn): 0.292
- COc1cc([C@@H]2c3cc4c(cc3[C@H](O)[C@H]3COC(=O)[C@H]23)OCO4)cc(OC)c1OC: 0.298
- C[C@@H]1CC[C@H]2[C@@H](C)C(=O)O[C@@H]3O[C@@]4(C)CC[C@@H]1[C@]32OO4: 0.121
- N[C@@H]1C[C@H]1c1ccccc1 [Tranylcypromine hydrochloride]: 0.285
- COc1ccc(CN2CCNCC2)c(OC)c1OC [Trimetazidine dihydrochloride]: 0.31
- NC(=O)CN1CCCC1=O: 0.299
- CC(C)(N)Cc1ccccc1 [Phentermine hydrochloride]: 0.288
- CC(C)N(CCC(C(N)=O)(c1ccccc1)c1ccccn1)C(C)C (stereo not drawn) [Disopyramide]: 0.285

Problem: Param item = "C1CCc2nnnn2CC1" ; retrieve measured growth.
Result: 0.282

Problem: Tell me the measured growth of "CCn1cc(C(=O)O)c(=O)c2cc3c(cc21)OCO3" , please.
Result: 0.0558

Problem: Param item = COc1ccc(C(CN(C)C)C2(O)CCCCC2)cc1 (stereo not drawn) ; retrieve measured growth.
Result: 0.301
